Overview of reported inhibition at 110 µM across a group of molecules:
- Tested on: C. elegans
- method: microbe, parasite or virus in culture
- experimental-parameters: Caenorhabditis elegans, 0 h, read-out: Percentage of motility inhibition 0 h, Table S2, C. elegans SS assay, 110 μM, 0 h, averages of 4 data points
readout-label: inhibition at 110 µM (%)

molecule | readout-label | measured
Oc1cc(O)c2c(c1)O[C@H](c1ccc(O)c(O)c1)[C@H](O)C2 [(‐)‐Epicatechin] | inhibition at 110 µM | 1
O=C(O)C1=CO[C@@H](O[C@@H]2O[C@H](CO)[C@@H](O)[C@H](O)[C@H]2O)[C@@H]2C(CO)=CC[C@H]12 [Geniposidic acid] | inhibition at 110 µM | 0
O=c1cc(-c2ccc(O)cc2)oc2cc(O[C@@H]3O[C@H](CO)[C@@H](O)[C@H](O)[C@H]3O[C@@H]3OC[C@](O)(CO)[C@H]3O)cc(O)c12 [Apiin] | inhibition at 110 µM | 24
CC1=C(C(=O)O)N2C(=O)[C@@H](NC(=O)[C@H](N)C3=CCC=CC3)[C@H]2SC1 [Cefradine] | inhibition at 110 µM | 37

Reference for the values: paper PMC11855827
